The measured values listed here are drawn from paper PMC11568772.

# Tested on: hepatocellular (HePG2) carcinoma cell line
# test_description: MTT cytotoxicity, HePG-2
# Format: cell-based
# details: Homo sapiens, HepG2, 24 h, read-out: IC50 HePG-2
pIC50: −log10 of the molar value.
readout: pIC50

- item_smiles: "O=C(NCCSc1nc2ccccc2c(=O)n1-c1ccccc1)Nc1ccc(Cl)cc1"
  reported_value: 4.05
- item_smiles: "O=C(NCCSc1nc2ccccc2c(=O)n1-c1ccccc1)NCc1ccccc1"
  reported_value: 4.18
- item_smiles: "O=C(NCCSc1nc2cc(Cl)ccc2c(=O)n1-c1ccccc1)NCc1ccccc1"
  reported_value: 4.28
- item_smiles: "O=C(NCCSc1nc2cc(Cl)ccc2c(=O)n1-c1ccccc1)NCc1ccc(Cl)cc1"
  reported_value: 5.01

---

Listed next: entries and their corresponding IC50.
# System: breast cancer (MCF-7) cell line
# test_description: MTT cytotoxicity, MCF-7
# Type: cell-based
# details: Homo sapiens, MCF7, 24 h, read-out: IC50 MCF-7

- molecule: "O=C(NCCSc1nc2ccccc2c(=O)n1-c1ccccc1)NCCc1ccc(Cl)cc1"
  test_target: "breast cancer (MCF-7) cell line"
  unit_annotation: "µM"
  IC50: 43.1
- molecule: "COc1ccc(CNC(=O)NCCSc2nc3cc(Cl)ccc3c(=O)n2-c2ccccc2)cc1"
  test_target: "breast cancer (MCF-7) cell line"
  unit_annotation: "µM"
  IC50: 86.5
- molecule: "O=C(NCCSc1nc2cc(Cl)ccc2c(=O)n1-c1ccccc1)NCCc1ccccc1"
  test_target: "breast cancer (MCF-7) cell line"
  unit_annotation: "µM"
  IC50: 24.6
- molecule: "O=C(NCCSc1nc2ccccc2c(=O)n1-c1ccccc1)Nc1ccc(Br)cc1"
  test_target: "breast cancer (MCF-7) cell line"
  unit_annotation: "µM"
  IC50: 55.1
- molecule: "COc1ccc(NC(=O)NCCSc2nc3cc(Cl)ccc3c(=O)n2-c2ccccc2)cc1"
  test_target: "breast cancer (MCF-7) cell line"
  unit_annotation: "µM"
  IC50: 16
- molecule: "O=C(NCCSc1nc2cc(Cl)ccc2c(=O)n1-c1ccccc1)NCc1ccccc1"
  test_target: "breast cancer (MCF-7) cell line"
  unit_annotation: "µM"
  IC50: 48.7
- molecule: "O=C(NCCSc1nc2cc(Cl)ccc2c(=O)n1-c1ccccc1)NCCc1ccc(Cl)cc1"
  test_target: "breast cancer (MCF-7) cell line"
  unit_annotation: "µM"
  IC50: 10.7
- molecule: "O=C(NCCSc1nc2ccccc2c(=O)n1-c1ccccc1)NCc1ccc(Cl)cc1"
  test_target: "breast cancer (MCF-7) cell line"
  unit_annotation: "µM"
  IC50: 39.6
- molecule: "O=C(NCCSc1nc2ccccc2c(=O)n1-c1ccccc1)Nc1ccc(Cl)cc1"
  test_target: "breast cancer (MCF-7) cell line"
  unit_annotation: "µM"
  IC50: 92.2
- molecule: "CNC(=O)c1cc(Oc2ccc(NC(=O)Nc3ccc(Cl)c(C(F)(F)F)c3)cc2)ccn1 [SOR, Sorafenib, reference compound]"
  test_target: "breast cancer (MCF-7) cell line"
  unit_annotation: "µM"
  IC50: 4.17
- molecule: "O=C(NCCSc1nc2ccccc2c(=O)n1-c1ccccc1)Nc1ccc(C(F)(F)F)cc1"
  test_target: "breast cancer (MCF-7) cell line"
  unit_annotation: "µM"
  IC50: 4.81
- molecule: "O=C(NCCSc1nc2cc(Cl)ccc2c(=O)n1-c1ccccc1)Nc1ccc(C(F)(F)F)cc1"
  test_target: "breast cancer (MCF-7) cell line"
  unit_annotation: "µM"
  IC50: 21.4
- molecule: "O=C(NCCSc1nc2cc(Cl)ccc2c(=O)n1-c1ccccc1)Nc1ccc(Cl)cc1"
  test_target: "breast cancer (MCF-7) cell line"
  unit_annotation: "µM"
  IC50: 32.9
- molecule: "O=C(NCCSc1nc2ccccc2c(=O)n1-c1ccccc1)NCc1ccccc1"
  test_target: "breast cancer (MCF-7) cell line"
  unit_annotation: "µM"
  IC50: 72.8
- molecule: "COc1ccc(NC(=O)NCCSc2nc3ccccc3c(=O)n2-c2ccccc2)cc1"
  test_target: "breast cancer (MCF-7) cell line"
  unit_annotation: "µM"
  IC50: 79.5
- molecule: "COc1ccc(CNC(=O)NCCSc2nc3ccccc3c(=O)n2-c2ccccc2)cc1"
  test_target: "breast cancer (MCF-7) cell line"
  unit_annotation: "µM"
  IC50: 18.7
- molecule: "O=C(NCCSc1nc2cc(Cl)ccc2c(=O)n1-c1ccccc1)Nc1ccc(Br)cc1"
  test_target: "breast cancer (MCF-7) cell line"
  unit_annotation: "µM"
  IC50: 37.2
- molecule: "O=C(NCCSc1nc2cc(Cl)ccc2c(=O)n1-c1ccccc1)NCc1ccc(Cl)cc1"
  test_target: "breast cancer (MCF-7) cell line"
  unit_annotation: "µM"
  IC50: 7.99
- molecule: "O=C(NCCSc1nc2ccccc2c(=O)n1-c1ccccc1)NCCc1ccccc1"
  test_target: "breast cancer (MCF-7) cell line"
  unit_annotation: "µM"
  IC50: 13.9
